# Test system: LNCaP-Vancouver prostate cells
# test_name: In vitro LNCaP Vancouver prostate cell proliferation assay in lipid reduced medium
# Type: cell-based
# test_parameters: read-out: pIC50 LNCaP_Vancouver prostate cell (converted)
# Lookup of reported IC50 keyed by entry
parameter_measured: IC50 (nM)

compound=Cn1cc(-c2ccc(-c3ccc(C4=NC5(CC5)C(=O)N4CC4CN(C(=O)C5CC5)C4)cc3)cc2)cn1 reported_value=263
compound=O=C(N1CC(CN2C(=O)C3(CC3)N=C2c2ccc(-c3ccc4ccccc4c3)cc2F)C1)C1(O)CC1 reported_value=75.9
compound=O=C(C1CC1)N1CC[C@@H](CN2C(=O)C3(CC3)N=C2c2ccc(-c3ccc4[nH]ncc4c3)cc2F)C1 reported_value=64.6
compound=O=C(C1CC1)N1CC[C@@H](CN2C(=O)C3(CC3)N=C2c2ccc(-c3ccc4cccc(F)c4c3)cc2F)C1 reported_value=85.1

---

# Lookup of reported IC50 keyed by entry
# Test system: LNCaP-Vancouver prostate cells
# test_name: In vitro LNCaP Vancouver prostate cell proliferation assay in lipid reduced medium
# Format: cell-based
# test_parameters: read-out: pIC50 LNCaP_Vancouver prostate cell (converted)
parameter_measured: IC50 (nM)

compound="Cn1nc(CO)c2cc(-c3ccc(C4=NC5(CC5)C(=O)N4CC4CN(C(=O)C5CC5)C4)cc3)ccc21 [compound 530]" measurement_unit=nM reported_value=5130
compound="N#Cc1ccc2cc(-c3ccc(C4=NC5(CC5)C(=O)N4CC4CN(C(=O)C5(O)CC5)C4)c(F)c3)ccc2c1 [compound 872]" measurement_unit=nM reported_value=24
compound="Cn1ccc2cc(-c3ccc(C4=NC5(CC5)C(=O)N4CC4CN(C(=O)C5CC5)C4)cc3)ccc21 [compound 344]" measurement_unit=nM reported_value=141
compound="Cc1cc(C2=NC3(CC3)C(=O)N2C[C@@H]2CCN(C(=O)C3CC3)C2)ccc1-c1ccc2[nH]ccc2c1 [compound 238]" measurement_unit=nM reported_value=245
compound="O=C(C1CC1)N1CC(CN2C(=O)C3(CC3)N=C2c2ccc(-c3ccc4cccnc4n3)cc2)C1 [compound 511]" measurement_unit=nM reported_value=4680
compound="N#Cc1ccc2cc(-c3ccc(C4=NC5(CC5)C(=O)N4CC4CN(C(=O)C5(F)CC5)C4)c(F)c3)ccc2c1 [compound 225]" measurement_unit=nM reported_value=158

---

# tested_target: hFASN enzyme (full length) (Homo sapiens, UniProt P49327)
# Construct: 10 μL hFASN enzyme (full length, 300 ng, purified in house); made in house
# Sequence (P49327 whole entry): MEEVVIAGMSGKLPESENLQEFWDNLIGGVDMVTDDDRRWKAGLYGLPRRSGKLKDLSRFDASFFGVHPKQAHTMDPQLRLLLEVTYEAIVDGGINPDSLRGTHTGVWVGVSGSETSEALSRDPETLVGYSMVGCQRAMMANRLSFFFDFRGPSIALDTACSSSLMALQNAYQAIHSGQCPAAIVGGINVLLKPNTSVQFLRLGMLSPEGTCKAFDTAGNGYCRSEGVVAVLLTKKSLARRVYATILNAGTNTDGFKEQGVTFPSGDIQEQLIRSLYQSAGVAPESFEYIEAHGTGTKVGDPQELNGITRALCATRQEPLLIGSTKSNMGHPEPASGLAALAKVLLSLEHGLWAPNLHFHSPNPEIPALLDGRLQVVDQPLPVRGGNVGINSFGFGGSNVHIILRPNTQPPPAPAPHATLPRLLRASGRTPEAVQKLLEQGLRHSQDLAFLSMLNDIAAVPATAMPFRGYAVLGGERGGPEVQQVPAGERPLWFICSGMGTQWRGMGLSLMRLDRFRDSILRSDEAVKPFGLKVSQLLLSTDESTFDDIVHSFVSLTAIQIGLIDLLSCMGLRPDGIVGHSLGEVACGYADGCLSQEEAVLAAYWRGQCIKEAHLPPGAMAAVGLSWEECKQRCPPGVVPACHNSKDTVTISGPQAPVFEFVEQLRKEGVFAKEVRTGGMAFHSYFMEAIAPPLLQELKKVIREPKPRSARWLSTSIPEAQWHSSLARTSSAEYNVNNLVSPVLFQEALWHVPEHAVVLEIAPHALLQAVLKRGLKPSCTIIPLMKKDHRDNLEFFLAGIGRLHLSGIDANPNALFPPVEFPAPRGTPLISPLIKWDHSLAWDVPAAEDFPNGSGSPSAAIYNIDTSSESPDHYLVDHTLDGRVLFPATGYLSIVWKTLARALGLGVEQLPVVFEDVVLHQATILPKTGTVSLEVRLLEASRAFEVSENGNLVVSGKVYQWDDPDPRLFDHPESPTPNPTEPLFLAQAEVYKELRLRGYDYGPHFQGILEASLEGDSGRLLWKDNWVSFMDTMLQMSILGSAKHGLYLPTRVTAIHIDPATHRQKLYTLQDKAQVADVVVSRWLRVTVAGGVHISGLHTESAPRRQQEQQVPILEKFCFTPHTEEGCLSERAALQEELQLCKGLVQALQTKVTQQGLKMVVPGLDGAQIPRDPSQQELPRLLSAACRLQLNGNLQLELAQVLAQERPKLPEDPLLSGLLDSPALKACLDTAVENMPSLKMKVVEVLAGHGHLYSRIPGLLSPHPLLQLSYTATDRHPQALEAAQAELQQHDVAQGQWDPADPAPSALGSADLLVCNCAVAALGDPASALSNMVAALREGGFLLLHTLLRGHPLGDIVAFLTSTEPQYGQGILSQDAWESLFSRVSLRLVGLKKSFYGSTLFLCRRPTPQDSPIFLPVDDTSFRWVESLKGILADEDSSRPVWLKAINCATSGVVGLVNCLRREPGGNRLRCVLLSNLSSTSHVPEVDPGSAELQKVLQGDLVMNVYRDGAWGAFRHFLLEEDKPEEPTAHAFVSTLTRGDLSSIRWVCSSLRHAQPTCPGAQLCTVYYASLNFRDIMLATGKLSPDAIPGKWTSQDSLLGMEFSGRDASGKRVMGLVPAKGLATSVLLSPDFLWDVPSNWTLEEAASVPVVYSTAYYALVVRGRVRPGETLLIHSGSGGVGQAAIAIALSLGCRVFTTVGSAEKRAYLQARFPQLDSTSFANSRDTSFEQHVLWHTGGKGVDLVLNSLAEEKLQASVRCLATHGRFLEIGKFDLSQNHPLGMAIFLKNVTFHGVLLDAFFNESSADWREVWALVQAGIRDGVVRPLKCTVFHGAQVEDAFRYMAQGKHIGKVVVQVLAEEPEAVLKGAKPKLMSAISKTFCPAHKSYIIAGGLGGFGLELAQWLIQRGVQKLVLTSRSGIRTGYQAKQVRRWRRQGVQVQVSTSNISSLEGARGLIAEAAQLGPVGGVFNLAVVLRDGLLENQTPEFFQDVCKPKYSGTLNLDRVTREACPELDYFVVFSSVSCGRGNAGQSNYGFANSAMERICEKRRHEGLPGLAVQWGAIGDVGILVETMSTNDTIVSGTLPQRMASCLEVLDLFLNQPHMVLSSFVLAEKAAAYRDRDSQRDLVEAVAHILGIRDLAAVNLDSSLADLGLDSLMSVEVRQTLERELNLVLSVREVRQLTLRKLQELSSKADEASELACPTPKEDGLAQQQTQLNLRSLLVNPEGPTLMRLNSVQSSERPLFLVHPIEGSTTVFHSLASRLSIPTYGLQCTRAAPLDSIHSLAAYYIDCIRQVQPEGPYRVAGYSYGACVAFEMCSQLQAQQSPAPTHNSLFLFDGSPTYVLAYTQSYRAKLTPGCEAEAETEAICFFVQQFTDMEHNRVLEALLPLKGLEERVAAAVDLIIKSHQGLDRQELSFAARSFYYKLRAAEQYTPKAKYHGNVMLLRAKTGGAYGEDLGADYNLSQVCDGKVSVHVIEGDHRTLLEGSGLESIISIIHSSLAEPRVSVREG
# test_name: Fatty Acid Synthase (FASN) inhibition scintillation proximity assay
# Assay type: biochemical
# test_parameters: read-out: Human FASN pIC50 (converted)
# Lookup of reported IC50 keyed by entry
parameter_measured: IC50 (nM)

compound="COCc1nn(C)c2cc(-c3ccc(C4=NC5(CC5)C(=O)N4C[C@@H]4CCN(C(=O)C5CC5)C4)cc3)ccc12 [compound 484]" censoring_qualifier== reported_value=151
compound="O=C(C1CC1)N1CC(CN2C(=O)C3(CC3)N=C2c2ccc(-c3ccc4c(cnn4C4COC4)c3)cc2F)C1 [compound 789]" censoring_qualifier=> reported_value=10000
compound="O=C(C1CC1)N1CC(CN2C(=O)C3(CC3)N=C2c2ccc(-c3ccc(C4CC4)nc3)cc2)C1 [compound 798]" censoring_qualifier=> reported_value=10000
compound="O=C(C1CC1)N1CC(CN2C(=O)C3(CC3)N=C2c2ccc(-c3cccc(S(=O)(=O)C4CC4)c3)cc2F)C1 [compound 651]" censoring_qualifier== reported_value=3090
compound="N#CCCn1ncc2cc(-c3ccc(C4=NC5(CC5)C(=O)N4CC4CN(C(=O)C5CC5)C4)cc3)ccc21 [compound 533]" censoring_qualifier== reported_value=7590
compound="O=C(C1CC1)N1CCC[C@H](CN2C(=O)C3(CC3)N=C2c2ccc(-c3ccc(-c4cccc(Cl)c4)cc3)cc2)C1 [compound 813]" censoring_qualifier=> reported_value=10000
compound="CC(=O)N1CCC2(CC1)N=C(c1ccc(-c3ccc4[nH]ncc4c3)cc1)N(C[C@@H]1CCN(C(=O)C3CC3)C1)C2=O [compound 148]" censoring_qualifier== reported_value=302
compound="O=C(C1CC1)N1CC(CN2C(=O)C3(CC3)N=C2c2ccc(-c3ccc4ccc(F)cc4c3)cc2F)C1 [compound 324]" censoring_qualifier== reported_value=32.4
compound="Cc1cc(C2=NC3(CC3)C(=O)N2CC2CN(C(=O)C3CC3)C2)ccc1-c1ccc2sccc2c1 [compound 392]" censoring_qualifier== reported_value=245
compound="Cn1ccc(-c2ccc(-c3ccc(C4=NC5(CC5)C(=O)N4CC4CN(C(=O)C5CC5)C4)c(F)c3)cc2)n1 [compound 547]" censoring_qualifier== reported_value=178
compound="COC(=O)N1CC2(C1)N=C(c1ccc(-c3ccc4occc4c3)cc1)N(C[C@@H]1CCN(C(=O)C3CC3)C1)C2=O [compound 733]" censoring_qualifier== reported_value=200
compound="O=C(C1CC1)N1CCC[C@@H](CN2C(=O)C3(CC3)N=C2c2ccc(-c3ccc4sccc4c3)cc2)C1 [compound 394]" censoring_qualifier== reported_value=1070
compound="O=C(C1CC1)N1CC[C@@H](CN2C(=O)C3(CCCC3)N=C2c2ccc(-c3cccnc3)cc2)C1 [compound 5]" censoring_qualifier== reported_value=2140

---

# Lookup of reported IC50 keyed by entry
# tested_target: hFASN enzyme (full length) (Homo sapiens)
# Construct: 10 μL hFASN enzyme (full length, 300 ng, purified in house); made in house
# test_name: Fatty Acid Synthase (FASN) inhibition scintillation proximity assay
# Format: biochemical
# test_parameters: read-out: Human FASN pIC50 (converted)
parameter_measured: IC50 (nM)

molecule="COC(=O)N1CC2(C1)N=C(c1ccc(-c3ccc4occc4c3)cc1)N(C[C@@H]1CCN(C(=O)c3nccs3)C1)C2=O [compound 957]" censoring_qualifier=> reported_value=10000
molecule="Cn1ncc2cc(-c3ccc(C4=NC5(CC5)C(=O)N4C[C@@H]4CCN(C(=O)C5(C)CC5)C4)cc3)ccc21 [compound 201]" censoring_qualifier== reported_value=43.7
molecule="O=C(C1CC1)N1CC(CN2C(=O)C3(CC3)N=C2c2ccc(-c3ccc4[nH]ncc4c3)cc2)C1 [compound 51]" censoring_qualifier== reported_value=79.4
molecule="Cn1ccc2ccc(-c3ccc(C4=NC5(CC5)C(=O)N4CC4CN(C(=O)C5CC5)C4)cc3)cc21 [compound 541]" censoring_qualifier== reported_value=110
molecule="Cn1cc(-c2ccc(-c3ccc(C4=NC5(CCOCC5)C(=O)N4CC4CN(C(=O)N5CCCC5)C4)cc3)cc2)cn1 [compound 697]" censoring_qualifier== reported_value=5890
molecule="Cn1ccc2cc(-c3ccc(C4=NC5(CC5)C(=O)N4C[C@@H]4CCN(C(=O)C5CC5)C4)cc3)ccc21 [compound 215]" censoring_qualifier== reported_value=23.4

---

# tested_target: hFASN enzyme (full length) (Homo sapiens)
# Construct: 10 μL hFASN enzyme (full length, 300 ng, purified in house); made in house
# test_name: Fatty Acid Synthase (FASN) inhibition scintillation proximity assay
# Format: biochemical
# test_parameters: read-out: Human FASN pIC50 (converted)
# Lookup of reported log10 IC50 keyed by entry
parameter_measured: log10 IC50 (log10 of the value in nM)

compound=O=C(C1CC1)N1CC[C@@H](CN2C(=O)C3(CC3)N=C2c2ccc(-c3ccc(C(F)(F)F)cc3)cc2)C1 reported_value=3.51
compound=Cn1nccc1-c1ccc(-c2ccc(C3=NC4(CC4)C(=O)N3CC3CN(C(=O)C4CC4)C3)cc2)cc1 reported_value=3.87
compound=O=C(C1CC1)N1CC[C@@H](CN2C(=O)C3(CCN(CCO)CC3)N=C2c2ccc(-c3ccc4cnccc4c3)cc2)C1 reported_value=1.90
compound=Cn1cc(-c2ccc(-c3ccc(C4=NC5(CC5)C(=O)N4C[C@@H]4CCN(C(=O)C5(C)CC5)C4)c(F)c3)cc2)cn1 reported_value=1.76
compound=O=C(C1CC1)N1CC(CN2C(=O)C3(CC3)N=C2c2ccc(-c3ccc4occc4c3)cc2)C1 reported_value=1.78
compound=Cc1cc(-c2ccc3[nH]ccc3c2)ccc1C1=NC2(CC2)C(=O)N1CC1CN(C(=O)C2CC2)C1 reported_value=1.44
compound=O=C(C1CC1)N1CC(CN2C(=O)C3(CC3)N=C2c2ccc(-c3nc4ccc(Cl)cc4s3)cc2F)C1 reported_value=1.70

---

# tested_target: hFASN enzyme (full length) (Homo sapiens, UniProt P49327)
# Construct: 10 μL hFASN enzyme (full length, 300 ng, purified in house); made in house
# test_name: Fatty Acid Synthase (FASN) inhibition scintillation proximity assay
# Assay type: biochemical
# test_parameters: read-out: Human FASN % inhibition @ 10 μM, 10 μM test compound
# Lookup of reported inhibition at 10 µM keyed by entry
parameter_measured: inhibition at 10 µM (%)

compound="COCc1c2ccc(-c3ccc(C4=NC5(CC5)C(=O)N4C[C@@H]4CCN(C(=O)C5CC5)C4)cc3)cc2nn1C [compound 486]" parameter_measured="inhibition at 10 µM" reported_value=81
compound="Cc1cc(C2=NC3(CC3)C(=O)N2C[C@@H]2CCN(C(=O)C3CC3)C2)ccc1-c1ccc2oc(C#N)cc2c1 [compound 476]" parameter_measured="inhibition at 10 µM" reported_value=90
compound="Cn1ncc2cc(-c3ccc(C4=NC5(CCOCC5)C(=O)N4C[C@@H]4CCN(C(=O)c5nccs5)C4)cc3)ccc21 [compound 959]" parameter_measured="inhibition at 10 µM" reported_value=-7
compound="Cc1cc(-c2ccc3oc(C#N)cc3c2)ccc1C1=NC2(CC2)C(=O)N1C[C@@H]1CCN(C(=O)C2CC2)C1 [compound 255]" parameter_measured="inhibition at 10 µM" reported_value=99
compound="O=C(C1CC1)N1CC(CN2C(=O)C3(CCCC3)N=C2c2ccc(-c3ccc4[nH]ccc4c3)cc2)C1 [compound 78]" parameter_measured="inhibition at 10 µM" reported_value=111
compound="Cc1cc2cc(-c3ccc(C4=NC5(CC5)C(=O)N4C[C@@H]4CCN(C(=O)C5(O)CC5)C4)c(F)c3)ccc2s1 [compound 354]" parameter_measured="inhibition at 10 µM" reported_value=100
compound="COC(=O)N1CC2(C1)N=C(c1ccc(-c3ccc4cccnc4c3)cc1)N(C[C@@H]1CCN(S(C)(=O)=O)C1)C2=O [compound 900]" parameter_measured="inhibition at 10 µM" reported_value=9
compound="Cc1cc(-c2ccc3[nH]ncc3c2)ccc1C1=NC2(CC2)C(=O)N1CC1CN(C(=O)C2CC2)C1 [compound 293]" parameter_measured="inhibition at 10 µM" reported_value=105
compound="Cn1ncc2cc(-c3ccc(C4=NC5(CC5)C(=O)N4C[C@H]4CCCN(C(=O)C5CC5)C4)cc3)ccc21 [compound 819]" parameter_measured="inhibition at 10 µM" reported_value=10
compound="CC(=O)N1CCC2(CC1)N=C(c1ccc(-c3ccc4sc(C)c(C)c4c3)cc1)N(C[C@@H]1CCN(C(=O)C3CC3)C1)C2=O [compound 181]" parameter_measured="inhibition at 10 µM" reported_value=109
compound="O=C(C1CC1)N1CCC2(CC1)N=C(c1ccc(-c3ccc4occc4c3)cc1)N(CC1CN(C(=O)C3CC3)C1)C2=O [compound 134]" parameter_measured="inhibition at 10 µM" reported_value=91.7
compound="Cn1ncc2cc(-c3ccc(C4=NC5(CCOCC5)C(=O)N4CC4CN(C(=O)c5nccs5)C4)cc3)ccc21 [compound 908]" parameter_measured="inhibition at 10 µM" reported_value=2
compound="CC(=O)N1CCC2(CC1)N=C(c1ccc(-c3ccc4[nH]ncc4c3)cc1)N(C[C@@H]1CCN(C(=O)C3CC3)C1)C2=O [compound 148]" parameter_measured="inhibition at 10 µM" reported_value=105
compound="Cn1ncc2cc(-c3ccc(C4=NC5(CCOCC5)C(=O)N4C[C@@H]4CCN(S(C)(=O)=O)C4)cc3)ccc21 [compound 926]" parameter_measured="inhibition at 10 µM" reported_value=-8
compound="COc1cc(-c2ccc3occc3c2)ccc1C1=NC2(CCCC2)C(=O)N1C[C@@H]1CCN(C(=O)C2CC2)C1 [compound 156]" parameter_measured="inhibition at 10 µM" reported_value=108

Values were extracted from patent US10077261B2.
